The entries below come with measured Mol Fraction Unbound values attached.
# System: PKCα catalytic domain (Homo sapiens)
# Construct: All activity assays were performed with 50 nM isolated catalytic domain in PKC Buffer; fused substrate peptide with the fluorophore next to it (N, cleaved yes); second fluorophore of the mCerulean/mCitrine pair (next to the catalytic domain) (N); FLAG; made in house; host or cells: Sf9 insect cells (pBiex1), then on-resin TEV cleavage
# Assay Details: Time-resolved fluorescence decay (TCSPC) of peptide-catalytic domain FRET sensors
# Type: binding
# Conditions: eGFP/mCherry sensors, PKC Buffer containing 100 μM ATP; means ± SEM, N = 3
Respond numerically, and do not add a unit to the figure.

Req: Please report the recorded Mol Fraction Unbound for 11: peptide substrate FKLKRKGTFKKFA, SEQ ID NO:35, Optimized PKCβ Sub.; Ala-substituted sensor form SEQ ID NO:23 [Peptide 11] .
Resp: 0.85

---

# System: PKCα catalytic domain (Homo sapiens)
# Construct: All activity assays were performed with 50 nM isolated catalytic domain in PKC Buffer; fused substrate peptide with the fluorophore next to it (N, cleaved yes); second fluorophore of the mCerulean/mCitrine pair (next to the catalytic domain) (N); FLAG; made in house; host or cells: Sf9 insect cells (pBiex1), then on-resin TEV cleavage
# Assay Details: Time-resolved fluorescence decay (TCSPC) of peptide-catalytic domain FRET sensors
# Type: binding
# Conditions: second lifetime of bi-exponential fit, τ1 fixed to donor linker control (2.56 ± 0.01 ns); means ± SEM, N = 3
Measure: τ2 (ns)
Field: numeric (ns). Do not append units.

>  <Substance>
8: peptide substrate IVRKATLRRLL, SEQ ID NO:18, from EGF Receptor; Ala-substituted sensor form SEQ ID NO:17 [Peptide 8]

>  <τ2 (ns)>
0.66

$$$$
>  <Substance>
11: peptide substrate FKLKRKGTFKKFA, SEQ ID NO:35, Optimized PKCβ Sub.; Ala-substituted sensor form SEQ ID NO:23 [Peptide 11]

>  <τ2 (ns)>
0.88

$$$$
>  <Substance>
6: peptide substrate ASQKRPSQRH, SEQ ID NO:14, from Myelin Basic Protein; Ala-substituted in FRET sensors [Peptide 6]

>  <τ2 (ns)>
0.49

$$$$

For the next question, use this substance.
Req: What is its τ2 for PKCα catalytic domain (Homo sapiens)? Entry: 10: peptide substrate RRRRSIIFI, SEQ ID NO:22, Optimized PKA Sub.; Ala-substituted in FRET sensors [Peptide 10]
Resp: 0.83

---

# System: PKCα catalytic domain (Homo sapiens)
# Construct: All activity assays were performed with 50 nM isolated catalytic domain in PKC Buffer; fused substrate peptide with the fluorophore next to it (N, cleaved yes); second fluorophore of the mCerulean/mCitrine pair (next to the catalytic domain) (N); FLAG; made in house; host or cells: Sf9 insect cells (pBiex1), then on-resin TEV cleavage
# Assay Details: Time-resolved fluorescence decay (TCSPC) of peptide-catalytic domain FRET sensors
# Type: binding
# Conditions: eGFP/mCherry sensors, PKC Buffer containing 100 μM ATP; A2/(A1+A2); means ± SEM, N = 3
The entries below come with measured Mol Fraction Bound values attached.
Respond numerically, and do not add a unit to the figure.

>  <Substance>
10: peptide substrate RRRRSIIFI, SEQ ID NO:22, Optimized PKA Sub.; Ala-substituted in FRET sensors [Peptide 10]

>  <Mol Fraction Bound>
0.16

$$$$
>  <Substance>
8: peptide substrate IVRKATLRRLL, SEQ ID NO:18, from EGF Receptor; Ala-substituted sensor form SEQ ID NO:17 [Peptide 8]

>  <Mol Fraction Bound>
0.11

$$$$
>  <Substance>
6: peptide substrate ASQKRPSQRH, SEQ ID NO:14, from Myelin Basic Protein; Ala-substituted in FRET sensors [Peptide 6]

>  <Mol Fraction Bound>
0.08

$$$$

Req: Please report the recorded Mol Fraction Bound for 11: peptide substrate FKLKRKGTFKKFA, SEQ ID NO:35, Optimized PKCβ Sub.; Ala-substituted sensor form SEQ ID NO:23 [Peptide 11] .
Resp: 0.15
